TARGET: tyrosinase from fungi
TEST_SUMMARY: Tyrosinase assay (L-DOPA as substrate)
EXPERIMENTAL_PARAMETERS: tyrosinase from fungi (16U), phosphate buffer pH 6.8, 25° C., optical density at 470 nm, read-out: IC50 (concentration of the test compound at which 50% of the tyrosinase activity is inhibited)
Procedure: The action of the compounds I or Ia as skin lighteners is tested through their ability to inhibit the enzyme tyrosinase and thus to suppress melanin synthesis. The inhibiting action of the compounds of the formula I or Ia against tyrosinase is assessed using tyrosinase from fungi and L-DOPA as substrate. […]
READOUT_LABEL: IC50 (µM)

>  <COMPOUND>
O=c1cc(CO)occ1O

>  <IC50, µM>
12

$$$$
>  <COMPOUND>
O=C1CCc2ccc(O)cc2O1 [7-Hydroxychroman-2-one, 7-hydroxychroman-2-one]

>  <IC50, µM>
1000

$$$$

(A) CCc1cc2c(cc1O)OC(=O)CC2 [6-Ethyl-7-hydroxychroman-2-one, 6-ethyl-7-hydroxychroman-2-one]
(B) CCCCCCc1cc2c(cc1O)OC(=O)CC2 [6-Hexyl-7-hydroxychroman-2-one, 6-hexyl-7-hydroxychroman-2-one]
Lookup: Parameter check: reported IC50 is higher for which label, A or B ? To answer, give the label that identifies your chosen option.
Found: A
(A: 336 µM, B: 25 µM)
